# measured.on: YKL-40 (Homo sapiens (Human), UniProt P36222)
# Sequence (P36222 22-383): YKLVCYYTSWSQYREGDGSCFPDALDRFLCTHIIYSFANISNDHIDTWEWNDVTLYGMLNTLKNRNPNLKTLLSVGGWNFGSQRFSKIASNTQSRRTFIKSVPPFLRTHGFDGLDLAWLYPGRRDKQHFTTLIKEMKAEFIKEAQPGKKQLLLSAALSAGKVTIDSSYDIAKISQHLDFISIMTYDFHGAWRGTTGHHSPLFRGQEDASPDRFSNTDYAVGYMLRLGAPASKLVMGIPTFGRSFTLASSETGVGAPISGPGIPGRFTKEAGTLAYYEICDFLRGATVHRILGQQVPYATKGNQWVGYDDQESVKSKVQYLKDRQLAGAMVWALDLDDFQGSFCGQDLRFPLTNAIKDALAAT
# test.method.notes: YKL-40:4 assay, competitive chitin binding site AlphaScreen
# experimental.setup: competition with biotinylated compound 4 (20 nM), YKL-40-histag 2.5 nM
Quick reference for IC50 among some compounds

Answered cases to consult:
Please give the measured IC50 for this compound: CC(C)C[C@H]1CN(C2CCN(c3ccccn3)CC2)[C@@H](Cc2ccc(Cl)cc2)CN1C(=O)OC(C)(C)C [Example 2e]
> 100 µM

Bench note: what IC50 did C[C@H]1CN(C2CCN(c3ncnc(C#N)n3)CC2)[C@@H](Cc2ccc(Cl)cc2)CO1 [compound 173, 2,2,2-trifluoroacetate] show?
> 100 µM

Request the reported IC50 associated with C[C@H]1CN(C2CCN(c3ccnc(Cl)n3)CC2)[C@@H](Cc2ccc(Cl)cc2)CO1 [compound 66]
> 100 µM

I'd like to know its IC50. The compound in question is CNC(=O)CN1C[C@H](Cc2ccc(Cl)cc2)N(C2CCN(c3ccccn3)CC2)C[C@@H]1C(C)C [compound 106, 2,2,2-trifluoroacetate]
< 0.1 µM

Need IC50 of C[C@H]1CN(C2CCN(c3noc(=O)[nH]3)CC2)[C@@H](Cc2ccc(Cl)cc2)CO1 [compound 165, 2,2,2-trifluoroacetate] , thanks.
> 100 µM

Would you mind telling me what IC50 value was observed for Cc1nnc(N2CCC(N3C[C@H](C)OC[C@@H]3Cc3ccc(Cl)cc3)CC2)s1 [compound 182, 2,2,2-trifluoroacetate] ?
> 100 µM

Please report the recorded IC50 for C[C@H]1CN(C2CCN(C(=O)OC(C)(C)C)CC2)[C@@H](Cc2ccc(Cl)cc2)CO1 [Example 8d] .
> 100 µM

Form field: reported IC50 of O=C1CCC(=O)N1C[C@H]1CN(C2CCN(c3ncccn3)CC2)[C@@H](Cc2ccc(Cl)cc2)CO1 [compound 77, 2,2,2-trifluoroacetate]
1 to 10 µM

For the compound C[C@H]1CN(C2CCN(c3cc(C(C)(C)O)ccn3)CC2)[C@@H](Cc2ccc(Cl)cc2)CO1 [compound 131, 2,2,2-trifluoroacetate] , what IC50 is on record?
> 100 µM

Using the record for CC1CC(N2C[C@H](C)OC[C@@H]2Cc2ccc(Cl)cc2)CCN1c1cc(Cl)ccn1 (single isomer, unassigned) [Example 31, 2,2,2-trifluoroacetate] , report its IC50.
1 to 10 µM

Now consider the entry below.
Reported IC50, compound O=C1NCCN(C2CCN(c3ccccn3)CC2)[C@H]1Cc1ccc(Cl)cc1 [compound 149, 2,2,2-trifluoroacetate] : ____
> 100 µM

---

# measured.on: YKL-40 (Homo sapiens (Human), UniProt P36222)
# test.method.notes: YKL-40:4 assay, competitive chitin binding site AlphaScreen
# experimental.setup: competition with biotinylated compound 4 (20 nM), YKL-40-histag 2.5 nM
pIC50: −log10 of the molar value.
property: pIC50

See these solved cases before continuing.
What measured pIC50 goes with C[C@H]1CN(C2CCN(c3ccc(Cl)cn3)CC2)[C@@H](Cc2ccc(Cl)cc2)CO1 [Example 11, 2,2,2-trifluoroacetate] ?
6.00 to 7.00

Reported pIC50, compound C[C@H]1CN(C2CCN(c3nccc(C(=O)O)c3F)CC2)[C@@H](Cc2ccc(Cl)cc2)CO1 [compound 128, 2,2,2-trifluoroacetate] : ____
< 4.00

Looking for the measured pIC50 of O[C@H]1CCN(C[C@H]2CN(C3CCN(c4ncccn4)CC3)[C@@H](Cc3ccc(Cl)cc3)CO2)C1 [compound 74, 2,2,2-trifluoroacetate] , can you help?
5.00 to 6.00

Can you share its pIC50? I mean this compound: C[C@H]1CN(C2CCN(c3ncc(C(F)(F)F)o3)CC2)[C@@H](Cc2ccc(Cl)cc2)CO1 [compound 168, 2,2,2-trifluoroacetate]
< 4.00

# get_value(readout='pIC50', item= CC[C@H]1CN(C2CCN(c3ccccn3)CC2)[C@@H](Cc2ccc(Cl)cc2)CN1C [compound 93, 2,2,2-trifluoroacetate] )
4.00 to 5.00

Continuing:
What value of measured pIC50 is listed for C[C@H]1CN(C2CCN(c3ncnc(O)n3)CC2)[C@@H](Cc2ccc(Cl)cc2)CO1 [compound 170, 2,2,2-trifluoroacetate] ?
< 4.00
